I'd be grateful if you could share measured logP for these entries.
Experiment: physchem
One number for each entry.

Record excerpt, results attached:
>>> df
        chemical_structure  recorded_result
0  O=[N+]([O-])C(Br)(CO)CO             0.18
1       O=c1[nH]sc2ccccc12             -1.3

# input Specify measured logP for "CCCCCCCCCCCC[N+](C)(C)CCOc1ccccc1" .
# output 1.7

----------
Test: Partition coefficients between octanol and water by UV/visible absorption
Details: n-octanol/water
Assay metric: logP
One number for each entry.

# input Specify measured logP for "Cn1sc2c(c1=O)CCC2" .
# output 0.6
